Target: T1, cynomolgus monkey TF-His (cynomolgus monkey, UniProt A0A2K5VX02 33-253)
T1 construct: range 33-252; Recombinant extracellular segment expressed in HEK293-EBNA cells and purified on a nickel column; also called c.TF-His; c; TF-his; not shown: His tag from vector pTT5-His
T1 sequence: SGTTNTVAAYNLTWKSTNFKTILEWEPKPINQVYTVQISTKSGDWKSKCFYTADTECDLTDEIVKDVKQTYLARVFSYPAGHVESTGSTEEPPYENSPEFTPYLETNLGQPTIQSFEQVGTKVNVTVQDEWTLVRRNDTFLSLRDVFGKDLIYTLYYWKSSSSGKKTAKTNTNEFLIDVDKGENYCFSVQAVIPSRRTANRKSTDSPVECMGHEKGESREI
Assay: BLI (ForteBio Octet), antibody on ProA sensor, TF-His as analyte
Provide the reported kon of each item.
Number first, unit second.

Q: Param item = 22F11H5-hz1 (antibody, human IgG1, kappa, V domains shown, Humanized IgG1 kappa) VH: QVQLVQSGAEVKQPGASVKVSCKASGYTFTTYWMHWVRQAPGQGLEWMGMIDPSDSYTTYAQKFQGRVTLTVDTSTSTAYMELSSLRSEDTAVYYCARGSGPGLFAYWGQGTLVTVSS VL: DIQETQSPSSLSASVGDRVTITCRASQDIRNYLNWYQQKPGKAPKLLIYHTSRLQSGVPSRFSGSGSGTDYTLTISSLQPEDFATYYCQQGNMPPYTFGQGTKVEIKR ; retrieve measured kon.
Ans: 324000 M⁻¹ s⁻¹

Q: Repeat for the following binder: 30G11B7-hz1 (antibody, human IgG1, kappa, V domains shown, Humanized IgG1 kappa) VH: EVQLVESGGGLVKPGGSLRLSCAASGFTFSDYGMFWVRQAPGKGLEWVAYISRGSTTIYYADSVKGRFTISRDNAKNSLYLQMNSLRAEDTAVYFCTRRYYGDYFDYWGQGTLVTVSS VL: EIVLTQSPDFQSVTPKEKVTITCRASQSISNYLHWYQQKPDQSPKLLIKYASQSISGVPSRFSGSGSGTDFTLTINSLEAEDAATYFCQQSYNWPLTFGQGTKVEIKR
Ans: 364000 M⁻¹ s⁻¹

Q: Check 27H8H3-hz1 (antibody, human IgG1, kappa, V domains shown, Humanized IgG1 kappa) VH: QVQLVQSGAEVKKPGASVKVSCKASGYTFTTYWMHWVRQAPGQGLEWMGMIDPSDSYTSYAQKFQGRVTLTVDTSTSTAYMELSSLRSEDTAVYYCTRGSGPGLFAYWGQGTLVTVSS VL: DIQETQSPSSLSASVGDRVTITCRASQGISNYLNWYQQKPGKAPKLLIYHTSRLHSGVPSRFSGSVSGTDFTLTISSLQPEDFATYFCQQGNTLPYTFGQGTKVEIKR too.
Ans: 295000 M⁻¹ s⁻¹
